Data provenance is patent US20180112008A1.

Target: T1, GlcNAc2-15-mer glycopeptide, unconjugated (human)
T1 construct: Cys plus G25-V38 of MUC16^c114; Used in ELISA without KLH; also called 15-mer(chitobiose)[C-G25-V38]; 15mer-chitobiose peptide
T1 peptide: Ac-CGTQLQN(GlcNAc2)FTLDRSSV-NH2
Experiment: ELISA 12/24/13 (sups from time of freezing), dilution 400, column 15S
* marks the point of attachment. GlcNAc2 = N-linked chitobiose, CC(=O)N[C@@H]1[C@@H](O)[C@H](O[C@@H]2O[C@H](CO)[C@@H](O)[C@H](O)[C@H]2NC(C)=O)[C@@H](CO)O[C@H]1*
outcome-measure: ELISA signal
Lab note: write the figure by itself, no unit.

Completed entries (count: 3):
| binder | outcome-measure | observed-measurement |
| --- | --- | --- |
| 7B12.B3 (antibody, V domains shown, Mouse monoclonal from a hybridoma; also called MUC16 Glycosylation Antibody 7B12) VH: QVTLKESGPGILQPSQTLSLTCSFSGFSLSTVGMGVGWSRQPSGKGLEWLAHIWWDDEDKYYNPALKSRLTISKDTSKNQVFLKIANVDTADSATYYCTRIGTAQATDALDYWGQGTSVTVSS VL: DIVMTQAAPSVSVTPGESVSISCRSSKSLRKSNGNTYLYWFLQRPGQSPQRLIYYMSNLASGVPDRFSGRGSGTDFTLRISRVEAEDVGVYYCMQSLEYPLTFGGGTKLKIK | ELISA signal | 0.25 |
| 19C11.H6 (antibody, V domains shown, Mouse monoclonal from a hybridoma; Used as 89Zr-DFO-labelled antibody in the internalization assay; also called MUC16 Glycosylation Antibody 19C11) VH: QVNLKESGPGKLQPSQTLSLTCSFSGFSLSTLGMGVGWIRQSSGKGLEWLAHIWWDDDKYYNPALKSRLTISRATSKNQVFLKIVNVGTADTATYYCARIGTAQATDALDYWGQGTSVTVSS VL: DIVMTQAAPSIPVTPGESVSISCRSSKSLLHSNGNTYLYWFLQRPGQSPQRLIYYMSNLASGVPDRFSGRGSGTDFTLKISRVEAGDVGVYYCMQGLEHPLTFGGGTKLEIK | ELISA signal | 0.1 |
| 18C6.D12 (antibody, V domains shown, Mouse monoclonal from a hybridoma; also called MUC16 Glycosylation Antibody 18C6) VH: QVTLKESGPGILQPSQTLSLTCSFSGFSLSTVGMGVGWSRQPSGKGLEWLAHIWWDDEDKYYNPALKSRLTISKDTSKNQVFLKIANVDTADTATYYCTRIGTAQATDALDYWGQGTSVTVSS VL: DIVMTQAAPSVPVTPGESVSISCRSSKSLLHSNGNTYLYWFLQRPGQSPQRLIYYMSNLASGVPDRFSGRGSGTDFTLRISRVEAEDVGVYYCMQSLEYPLTFGGGTKLEIK | ELISA signal | 0.14 |

Turning to the following binder.
# ELISA signal of 16C5.C1 (antibody, V domains shown, Mouse monoclonal from a hybridoma) VH: QVTLKESGPGILQPSQTLSLTCSFSGFSLNTLGMGVGWIRQPSGKGLEWLAHIWWDDDKYYYPALKSRLTISRDTSKNQVFLKIANVDTADTATYYCARIGTAQATDALDYWGQGTSVTVSS VL: ELDMTQTPPSLSASVGETVRIRCLASEDIYSGISWYQQKPGKPPTLLIYGASNLESGVPPRFSGSGSGTDYTLTIGGVQAEDAATYYCLGGYSYSSTLTFGAGTNVEIK = 0.23
